test system: UACC-62; assay: Growth inhibition of human UACC62 cells assessed as cell growth at 0.1 uM incubated for 48 hrs by sulforhodamine B assay relative to control; assay type: functional; conditions: UACC-62, 48 h, read-out: Activity
measuredAttribute: growth at 0.1 µM (%)

1. O=C(Nc1cccc(-n2cc(-c3ccncc3)c(-c3cc(O)cc(Cl)c3)n2)c1)Nc1ccc(Cl)c(C(F)(F)F)c1
102
2. COc1cc(Cl)cc(-c2nn(-c3cccc(NC(=O)Nc4cccc(C(F)(F)F)c4)c3)cc2-c2ccncc2)c1
96
3. COc1cc(Cl)cc(-c2nn(-c3cccc(NC(=O)c4ccc(N5CCOCC5)c(C(F)(F)F)c4)c3)cc2-c2ccncc2)c1
91
4. COc1cc(Cl)cc(-c2nn(-c3cccc(NC(=O)Nc4ccc(Cl)c(C(F)(F)F)c4)c3)cc2-c2ccncc2)c1
93

###

// values below are reported growth at 0.01 µM
system: MCF7; assay: Growth inhibition of human MCF7 cells assessed as cell growth at 0.01 uM incubated for 48 hrs by sulforhodamine B assay relative to control; format: functional; conditions: MCF7, 48 h, read-out: Activity
measuredAttribute: growth at 0.01 µM (%)

1. O=C(Nc1cccc(-n2cc(-c3ccncc3)c(-c3cc(O)cc(Cl)c3)n2)c1)c1ccc(N2CCOCC2)c(C(F)(F)F)c1
91
2. COc1cc(Cl)cc(-c2nn(-c3cccc(NC(=O)c4cccc(C(F)(F)F)c4)c3)cc2-c2ccncc2)c1
93
3. COc1cc(Cl)cc(-c2nn(-c3cccc(NC(=O)Nc4cccc(C(F)(F)F)c4)c3)cc2-c2ccncc2)c1
91
4. O=C(Nc1cccc(-n2cc(-c3ccncc3)c(-c3cc(O)cc(Cl)c3)n2)c1)Nc1ccc(Cl)c(C(F)(F)F)c1
90
5. COc1cc(Cl)cc(-c2nn(-c3cccc(NC(=O)Nc4ccc(Cl)c(C(F)(F)F)c4)c3)cc2-c2ccncc2)c1
90

###

// values below are reported CC50
test system: ACHN; experiment: Growth inhibition of human ACHN cells incubated for 48 hrs by sulforhodamine B assay; type: functional, cell-based; conditions: read-out: pLC50 (the source's name) (converted)
measuredAttribute: CC50

1. O=C(Nc1cccc(-n2cc(-c3ccncc3)c(-c3cc(O)cc(Cl)c3)n2)c1)Nc1ccc(Cl)c(Cl)c1
> 100 µM
2. O=C(Nc1cccc(-n2cc(-c3ccncc3)c(-c3cc(O)cc(Cl)c3)n2)c1)c1cc(C(F)(F)F)cc(C(F)(F)F)c1
> 100 µM
3. COc1cc(Cl)cc(-c2nn(-c3cccc(NC(=O)Nc4ccc(Cl)c(Cl)c4)c3)cc2-c2ccncc2)c1
> 100 µM
4. COc1cc(Cl)cc(-c2nn(-c3cccc(NC(=O)c4ccc(N5CCOCC5)c(C(F)(F)F)c4)c3)cc2-c2ccncc2)c1
> 100 µM
5. COc1cc(Cl)cc(-c2nn(-c3cccc(NC(=O)Nc4ccc(Cl)c(C(F)(F)F)c4)c3)cc2-c2ccncc2)c1
> 100 µM

###

// values below are reported GI50
test system: SN12C; test: Growth inhibition of human SN12C cells incubated for 48 hrs by sulforhodamine B assay; assay type: functional, cell-based; details: read-out: GI50
measuredAttribute: GI50 (µM)

1. O=C(Nc1cccc(-n2cc(-c3ccncc3)c(-c3cc(O)cc(Cl)c3)n2)c1)Nc1ccc(Cl)c(Cl)c1
2.78
2. COc1cc(Cl)cc(-c2nn(-c3cccc(NC(=O)Nc4ccc(Cl)c(Cl)c4)c3)cc2-c2ccncc2)c1
3.1
3. O=C(Nc1cccc(-n2cc(-c3ccncc3)c(-c3cc(O)cc(Cl)c3)n2)c1)c1cc(C(F)(F)F)cc(C(F)(F)F)c1
4.77
4. O=C(Nc1cccc(-n2cc(-c3ccncc3)c(-c3cc(O)cc(Cl)c3)n2)c1)c1ccc(N2CCOCC2)c(C(F)(F)F)c1
6.37
5. O=C(Nc1cccc(-n2cc(-c3ccncc3)c(-c3cc(O)cc(Cl)c3)n2)c1)Nc1ccc(Cl)c(C(F)(F)F)c1
3.44
6. COc1cc(Cl)cc(-c2nn(-c3cccc(NC(=O)Nc4cc(C(F)(F)F)cc(C(F)(F)F)c4)c3)cc2-c2ccncc2)c1
0.356

###

tested on: T47D; assay: Growth inhibition of human T47D cells assessed as cell growth at 100 uM incubated for 48 hrs by sulforhodamine B assay relative to control; type: functional; settings: read-out: Activity
measuredAttribute: growth at 100 µM

1. O=C(Nc1cccc(-n2cc(-c3ccncc3)c(-c3cc(O)cc(Cl)c3)n2)c1)Nc1ccc(Cl)c(Cl)c1
-39%
2. COc1cc(Cl)cc(-c2nn(-c3cccc(NC(=O)Nc4cccc(C(F)(F)F)c4)c3)cc2-c2ccncc2)c1
-25%
3. O=C(Nc1cccc(-n2cc(-c3ccncc3)c(-c3cc(O)cc(Cl)c3)n2)c1)c1ccc(N2CCOCC2)c(C(F)(F)F)c1
7%
4. COc1cc(Cl)cc(-c2nn(-c3cccc(NC(=O)c4ccc(N5CCOCC5)c(C(F)(F)F)c4)c3)cc2-c2ccncc2)c1
33%
5. COc1cc(Cl)cc(-c2nn(-c3cccc(NC(=O)Nc4ccc(Cl)c(C(F)(F)F)c4)c3)cc2-c2ccncc2)c1
-18%

###

// values below are reported CC50
test system: HCC 2998; assay: Growth inhibition of human HCC2998 cells incubated for 48 hrs by sulforhodamine B assay; format: functional, cell-based; details: HCC 2998, 48 h, read-out: pLC50 (the source's name) (converted)
measuredAttribute: CC50

1. COc1cc(Cl)cc(-c2nn(-c3cccc(NC(=O)Nc4ccc(Cl)c(Cl)c4)c3)cc2-c2ccncc2)c1
> 100 µM
2. O=C(Nc1cccc(-n2cc(-c3ccncc3)c(-c3cc(O)cc(Cl)c3)n2)c1)c1cc(C(F)(F)F)cc(C(F)(F)F)c1
> 100 µM
3. COc1cc(Cl)cc(-c2nn(-c3cccc(NC(=O)Nc4cc(C(F)(F)F)cc(C(F)(F)F)c4)c3)cc2-c2ccncc2)c1
42.7 µM
4. O=C(Nc1cccc(-n2cc(-c3ccncc3)c(-c3cc(O)cc(Cl)c3)n2)c1)c1ccc(N2CCOCC2)c(C(F)(F)F)c1
> 100 µM

###

test system: M14; assay: Growth inhibition of human M14 cells incubated for 48 hrs by sulforhodamine B assay; assay type: functional, cell-based; conditions: M14, 48 h, read-out: pGI50 (converted)
// values below are reported GI50
measuredAttribute: GI50 (nM)

1) O=C(Nc1cccc(-n2cc(-c3ccncc3)c(-c3cc(O)cc(Cl)c3)n2)c1)Nc1ccc(Cl)c(C(F)(F)F)c1
1700
2) COc1cc(Cl)cc(-c2nn(-c3cccc(NC(=O)Nc4cc(C(F)(F)F)cc(C(F)(F)F)c4)c3)cc2-c2ccncc2)c1
447
3) COc1cc(Cl)cc(-c2nn(-c3cccc(NC(=O)c4cccc(C(F)(F)F)c4)c3)cc2-c2ccncc2)c1
6030
4) O=C(Nc1cccc(-n2cc(-c3ccncc3)c(-c3cc(O)cc(Cl)c3)n2)c1)c1cc(C(F)(F)F)cc(C(F)(F)F)c1
3020

###

test system: 786-0; assay: Growth inhibition of human 786-0 cells assessed as cell growth at 0.1 uM incubated for 48 hrs by sulforhodamine B assay relative to control; type: functional; conditions: 786-0, 48 h, read-out: Activity
measuredAttribute: growth at 0.1 µM (%)

1. COc1cc(Cl)cc(-c2nn(-c3cccc(NC(=O)Nc4ccc(Cl)c(C(F)(F)F)c4)c3)cc2-c2ccncc2)c1
96
2. O=C(Nc1cccc(-n2cc(-c3ccncc3)c(-c3cc(O)cc(Cl)c3)n2)c1)c1cc(C(F)(F)F)cc(C(F)(F)F)c1
97
3. COc1cc(Cl)cc(-c2nn(-c3cccc(NC(=O)Nc4cc(C(F)(F)F)cc(C(F)(F)F)c4)c3)cc2-c2ccncc2)c1
92
4. COc1cc(Cl)cc(-c2nn(-c3cccc(NC(=O)c4cccc(C(F)(F)F)c4)c3)cc2-c2ccncc2)c1
97
5. O=C(Nc1cccc(-n2cc(-c3ccncc3)c(-c3cc(O)cc(Cl)c3)n2)c1)Nc1ccc(Cl)c(Cl)c1
90

###

// values below are reported TGI
test system: NCI-H522; experiment: Growth inhibition of human NCI-H522 cells incubated for 48 hrs by sulforhodamine B assay; type: functional, cell-based; conditions: NCI-H522, 48 h, read-out: pTGI (converted)
measuredAttribute: TGI (µM)

1) O=C(Nc1cccc(-n2cc(-c3ccncc3)c(-c3cc(O)cc(Cl)c3)n2)c1)Nc1ccc(Cl)c(C(F)(F)F)c1
4.47
2) O=C(Nc1cccc(-n2cc(-c3ccncc3)c(-c3cc(O)cc(Cl)c3)n2)c1)c1ccc(N2CCOCC2)c(C(F)(F)F)c1
12
3) COc1cc(Cl)cc(-c2nn(-c3cccc(NC(=O)Nc4ccc(Cl)c(Cl)c4)c3)cc2-c2ccncc2)c1
4.47

###

// values below are reported growth at 1 µM
tested on: HCT-15; assay: Growth inhibition of human HCT15 cells assessed as cell growth at 1 uM incubated for 48 hrs by sulforhodamine B assay relative to control; assay type: functional; details: HCT-15, 48 h, read-out: Activity
measuredAttribute: growth at 1 µM (%)

1. COc1cc(Cl)cc(-c2nn(-c3cccc(NC(=O)c4ccc(N5CCOCC5)c(C(F)(F)F)c4)c3)cc2-c2ccncc2)c1
52
2. COc1cc(Cl)cc(-c2nn(-c3cccc(NC(=O)Nc4ccc(Cl)c(Cl)c4)c3)cc2-c2ccncc2)c1
77
3. COc1cc(Cl)cc(-c2nn(-c3cccc(NC(=O)Nc4ccc(Cl)c(C(F)(F)F)c4)c3)cc2-c2ccncc2)c1
35
4. O=C(Nc1cccc(-n2cc(-c3ccncc3)c(-c3cc(O)cc(Cl)c3)n2)c1)Nc1ccc(Cl)c(Cl)c1
75

// data source = ChEMBL document CHEMBL4308841
